run.description: Toxicity liver stage against HepG2, at 10uM
Type: cell-based
Parameters: test concentration 10 uM, cell line HepG2-A16-CD81EGFP
study.conditions: human, HepG2-A16-CD81EGFP cells; read-out: INHIBITION
Consider the following compounds; for each one, report its cytotoxicity at 10 µM.

Would you please look over these solved cases?
[
  {
    "compound": "CCN1CC(C(=O)NCCOc2ccc3c(c2)OCO3)CC1=O (stereo not given)",
    "cytotoxicity at 10 µM": "-2.34%"
  },
  {
    "compound": "CC(CS(C)(=O)=O)N(C(=O)CCc1cccc(F)c1)C1CC1 (stereo not given)",
    "cytotoxicity at 10 µM": "-6.77%"
  }
]

Quick batch: cytotoxicity at 10 µM for everything below.
1. COc1ccc2c(ccn2CCC(=O)N[C@H](C(=O)O)C(C)C)c1
2. CN(C)C(C(=O)N1Cc2ccccc2C1)c1ccccc1F (stereo not given)
3. CNC(=O)c1cc2c(nc1N(C)C)CCN(S(=O)(=O)CC(C)C)CC2

Ans:
["5.98%", "-1.91%", "-3.85%"]
